Cited source for all entries: PubChem BioAssay AID1918932

Tested on: 171881-019-R-J1-PDC complex spheroid viability
measurement protocol: Anticancer human tumor 171881-019-R-J1-PDC patient-derived invasive breast carcinoma cell line growth inhibition
settings: second compound 0.1 µM; first compound 0.316 µM; hits give low values
Source text: Multicellular complex tumor spheroid response to LSD1 Inhibitor Iadademstat in combination with a variety of drugs and investigational agents in selected tumor cell lines The current study was undertaken to assess response to LSD1 inhibitors in combination with standard-of-care drugs and investigational agents in solid tumor complex spheroid models as well as in the K-562 leukemia. […] Compounds. […] If the clinical Cmax for an agent had not been determined, the highest concentration tested was 10 microM. […]
Measured viability, T/C, listed per entry for reference.

molecule | viability, T/C, %
Nc1ncn(C2CC(O)C(CO)O2)c(=O)n1 (centres undefined) + NC1CCC(NC2CC2c2ccccc2)CC1 | 111
COc1ccc([C@@H](O)c2cc(-c3ncnc4cc(N5CCOCC5)ccc34)c(F)cc2Cl)nn1 + NC1CCC(NC2CC2c2ccccc2)CC1 | 106
CC1COCCN1c1cc(-c2ccnn2C)c2ccnc(-c3ccn[nH]3)c2n1 (centres undefined) + NC1CCC(NC2CC2c2ccccc2)CC1 | 6.58
CC1COCCN1c1cc(C2(S(C)(=N)=O)CC2)nc(-c2ccnc3[nH]ccc23)n1 (centres undefined) + NC1CC1c1ccc(-c2cccc(O)c2)cc1 | 97.9
CC(C)c1c(-c2ccccc2)nc2c(C#N)c[nH]n2c1=O + NC1CCC(NC2CC2c2ccccc2)CC1 | 82.7
O=C(C=Cn1cnc(-c2cc(C(F)(F)F)cc(C(F)(F)F)c2)n1)NNc1cnccn1 + NC1CC1c1ccc(-c2cccc(O)c2)cc1 | 2.1
CC(C)c1c(-c2ccccc2)nc2c(C#N)c[nH]n2c1=O + NC1CC1c1ccc(-c2cccc(O)c2)cc1 | 93
CC1(C)CCC(CN2CCN(c3ccc(C(=O)NS(=O)(=O)c4ccc(NCC5CCOCC5)c([N+](=O)[O-])c4)c(Oc4cnc5[nH]ccc5c4)c3)CC2)=C(c2ccc(Cl)cc2)C1 + NC1CCC(NC2CC2c2ccccc2)CC1 | 68.4
COc1ccc([C@@H](O)c2cc(-c3ncnc4cc(N5CCOCC5)ccc34)c(F)cc2Cl)nn1 + NC1CC1c1ccc(-c2cccc(O)c2)cc1 | 78.9
Nc1ncn(C2CC(O)C(CO)O2)c(=O)n1 (centres undefined) + NC1CC1c1ccc(-c2cccc(O)c2)cc1 | 93.8
O=C(c1cc(Cc2n[nH]c(=O)c3ccccc23)ccc1F)N1CCN(C(=O)C2CC2)CC1 + NC1CCC(NC2CC2c2ccccc2)CC1 | 82.4
O=C(C=Cn1cnc(-c2cc(C(F)(F)F)cc(C(F)(F)F)c2)n1)NNc1cnccn1 + NC1CCC(NC2CC2c2ccccc2)CC1 | 2.24
COc1cc(Nc2ncc3c(n2)-c2ccc(Cl)cc2C(c2c(F)cccc2OC)=NC3)ccc1C(=O)O + NC1CC1c1ccc(-c2cccc(O)c2)cc1 | 58.5
CC1(C)CCC(CN2CCN(c3ccc(C(=O)NS(=O)(=O)c4ccc(NCC5CCOCC5)c([N+](=O)[O-])c4)c(Oc4cnc5[nH]ccc5c4)c3)CC2)=C(c2ccc(Cl)cc2)C1 + NC1CC1c1ccc(-c2cccc(O)c2)cc1 | 87.8

* * *

System: 171881-019-R-J1-PDC complex spheroid viability
measurement protocol: Anticancer human tumor 171881-019-R-J1-PDC cell line growth inhibition;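 note: spheroids exposed to agents for 7 days after 3 days growth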
settings: second compound 10 µM; first compound 0.0316 µM; hits give low values
Measured viability, T/C, listed per entry for reference.
experimental readout: viability, T/C (%)

compound | measure unit | measured value
CC1COCCN1c1cc(C2(S(C)(=N)=O)CC2)nc(-c2ccnc3[nH]ccc23)n1 (centres undefined) + NC1CCC(NC2CC2c2ccccc2)CC1 | % | 81.8
CC1(C)CCC(CN2CCN(c3ccc(C(=O)NS(=O)(=O)c4ccc(NCC5CCOCC5)c([N+](=O)[O-])c4)c(Oc4cnc5[nH]ccc5c4)c3)CC2)=C(c2ccc(Cl)cc2)C1 + NC1CC1c1ccc(-c2cccc(O)c2)cc1 | % | 84.5
Nc1ncn(C2CC(O)C(CO)O2)c(=O)n1 (centres undefined) + NC1CCC(NC2CC2c2ccccc2)CC1 | % | 112
CC1COCCN1c1cc(-c2ccnn2C)c2ccnc(-c3ccn[nH]3)c2n1 (centres undefined) + NC1CCC(NC2CC2c2ccccc2)CC1 | % | 27.1
Cn1ncnc1C1c2n[nH]c(=O)c3cc(F)cc(c23)NC1c1ccc(F)cc1 (centres undefined) + NC1CC1c1ccc(-c2cccc(O)c2)cc1 | % | 83.3
CC(C)c1c(-c2ccccc2)nc2c(C#N)c[nH]n2c1=O + NC1CC1c1ccc(-c2cccc(O)c2)cc1 | % | 85.7
O=C(c1cc(Cc2n[nH]c(=O)c3ccccc23)ccc1F)N1CCN(C(=O)C2CC2)CC1 + NC1CC1c1ccc(-c2cccc(O)c2)cc1 | % | 85.7
O=C(c1cc(Cc2n[nH]c(=O)c3ccccc23)ccc1F)N1CCN(C(=O)C2CC2)CC1 + NC1CCC(NC2CC2c2ccccc2)CC1 | % | 83.8
CC(C)CC(NC(=O)CNC(=O)c1cc(Cl)ccc1Cl)B1OC(=O)CC(CC(=O)O)(C(=O)O)O1 (centres undefined) + NC1CC1c1ccc(-c2cccc(O)c2)cc1 | % | 4.16
CC[C@@]1(O)C(=O)OCc2c1cc1n(c2=O)Cc2cc3c(CN(C)C)c(O)ccc3nc2-1 + NC1CCC(NC2CC2c2ccccc2)CC1 | % | 90.7
CC(C)c1c(-c2ccccc2)nc2c(C#N)c[nH]n2c1=O + NC1CCC(NC2CC2c2ccccc2)CC1 | % | 87.2
COc1cc(Nc2ncc3c(n2)-c2ccc(Cl)cc2C(c2c(F)cccc2OC)=NC3)ccc1C(=O)O + NC1CC1c1ccc(-c2cccc(O)c2)cc1 | % | 64.1
COc1ccc([C@@H](O)c2cc(-c3ncnc4cc(N5CCOCC5)ccc34)c(F)cc2Cl)nn1 + NC1CC1c1ccc(-c2cccc(O)c2)cc1 | % | 84.8
Cn1ncnc1C1c2n[nH]c(=O)c3cc(F)cc(c23)NC1c1ccc(F)cc1 (centres undefined) + NC1CCC(NC2CC2c2ccccc2)CC1 | % | 72.6
O=C(C=Cn1cnc(-c2cc(C(F)(F)F)cc(C(F)(F)F)c2)n1)NNc1cnccn1 + NC1CC1c1ccc(-c2cccc(O)c2)cc1 | % | 6.08
CC(C)CC(NC(=O)C(Cc1ccccc1)NC(=O)c1cnccn1)B(O)O (centres undefined) + NC1CCC(NC2CC2c2ccccc2)CC1 | % | 0.09
CC1(C)CCC(CN2CCN(c3ccc(C(=O)NS(=O)(=O)c4ccc(NCC5CCOCC5)c([N+](=O)[O-])c4)c(Oc4cnc5[nH]ccc5c4)c3)CC2)=C(c2ccc(Cl)cc2)C1 + NC1CCC(NC2CC2c2ccccc2)CC1 | % | 91.3
CC(C)CC(NC(=O)C(Cc1ccccc1)NC(=O)c1cnccn1)B(O)O (centres undefined) + NC1CC1c1ccc(-c2cccc(O)c2)cc1 | % | 8.57
COc1cc(Nc2ncc3c(n2)-c2ccc(Cl)cc2C(c2c(F)cccc2OC)=NC3)ccc1C(=O)O + NC1CCC(NC2CC2c2ccccc2)CC1 | % | 97.6
